Each recorded value in this set is attributed to patent US20260176319A1.

Molecular target: human GRP receptor (human, UniProt P30550 1-384)
Sequence (P30550 whole entry): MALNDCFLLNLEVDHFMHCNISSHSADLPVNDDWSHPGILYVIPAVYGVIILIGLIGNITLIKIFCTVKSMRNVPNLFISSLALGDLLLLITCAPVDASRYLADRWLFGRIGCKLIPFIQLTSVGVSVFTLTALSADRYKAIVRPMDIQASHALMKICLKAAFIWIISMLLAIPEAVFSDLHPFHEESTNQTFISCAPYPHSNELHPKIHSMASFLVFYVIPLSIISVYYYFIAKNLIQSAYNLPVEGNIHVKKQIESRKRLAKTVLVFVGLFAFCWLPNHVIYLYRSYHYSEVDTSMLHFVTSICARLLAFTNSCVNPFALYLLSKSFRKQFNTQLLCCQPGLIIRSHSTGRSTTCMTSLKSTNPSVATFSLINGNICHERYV
Experiment: cell-based or functional assay
Starred links: 1 amine or outer side, 2 acyl side, 3 side chain; linkers in the order of their positions; H or OH if unused. Non-standard residues stand in square brackets, D forms with d. *: point of attachment. Trp(7-Me) = Cc1cccc2c(C[C@H](N)C(=O)O)c[nH]c12; d(γGlu) = O=C(O)[C@@H](CCC(=O)[*:2])N[*:1]; Palmitoyl = CCCCCCCCCCCCCCCC(=O)*; 3Pal = N[C@@H](Cc1cccnc1)C(=O)O; Nle = CCCC[C@H](N)C(=O)O; AEEA = NCCOCCOCC(=O)O; Aib = CC(C)(N)C(=O)O; Sar = CNCC(=O)O
MEASURED PROPERTY: hIP1 GRPR EC50

| BINDER | READOUT VALUE |
| --- | --- |
| Palmitoyl-[d(γGlu)][AEEA][AEEA]GE[3Pal][Trp(7-Me)][Aib]V[dA][3Pal]L[Nle][Sar]-NH2 (SMILES CCCCCCCCCCCCCCCC(=O)N[C@H](CCC(=O)NCCOCCOCC(=O)NCCOCCOCC(=O)NCC(=O)N[C@@H](CCC(=O)O)C(=O)N[C@@H](Cc1cccnc1)C(=O)N[C@@H](Cc1c[nH]c2c(C)cccc12)C(=O)NC(C)(C)C(=O)N[C@H](C(=O)N[C@H](C)C(=O)N[C@@H](Cc1cccnc1)C(=O)N[C@@H](CC(C)C)C(=O)N[C@@H](CCCC)C(=O)N(C)CC(N)=O)C(C)C)C(=O)O) [Peptide 18] | ~1000 nM |
